The reported measurements were obtained from ChEMBL document CHEMBL4610117.

Target: Serine/threonine-protein kinase ATR (Homo sapiens, UniProt Q13535)
Sequence (Q13535 whole entry): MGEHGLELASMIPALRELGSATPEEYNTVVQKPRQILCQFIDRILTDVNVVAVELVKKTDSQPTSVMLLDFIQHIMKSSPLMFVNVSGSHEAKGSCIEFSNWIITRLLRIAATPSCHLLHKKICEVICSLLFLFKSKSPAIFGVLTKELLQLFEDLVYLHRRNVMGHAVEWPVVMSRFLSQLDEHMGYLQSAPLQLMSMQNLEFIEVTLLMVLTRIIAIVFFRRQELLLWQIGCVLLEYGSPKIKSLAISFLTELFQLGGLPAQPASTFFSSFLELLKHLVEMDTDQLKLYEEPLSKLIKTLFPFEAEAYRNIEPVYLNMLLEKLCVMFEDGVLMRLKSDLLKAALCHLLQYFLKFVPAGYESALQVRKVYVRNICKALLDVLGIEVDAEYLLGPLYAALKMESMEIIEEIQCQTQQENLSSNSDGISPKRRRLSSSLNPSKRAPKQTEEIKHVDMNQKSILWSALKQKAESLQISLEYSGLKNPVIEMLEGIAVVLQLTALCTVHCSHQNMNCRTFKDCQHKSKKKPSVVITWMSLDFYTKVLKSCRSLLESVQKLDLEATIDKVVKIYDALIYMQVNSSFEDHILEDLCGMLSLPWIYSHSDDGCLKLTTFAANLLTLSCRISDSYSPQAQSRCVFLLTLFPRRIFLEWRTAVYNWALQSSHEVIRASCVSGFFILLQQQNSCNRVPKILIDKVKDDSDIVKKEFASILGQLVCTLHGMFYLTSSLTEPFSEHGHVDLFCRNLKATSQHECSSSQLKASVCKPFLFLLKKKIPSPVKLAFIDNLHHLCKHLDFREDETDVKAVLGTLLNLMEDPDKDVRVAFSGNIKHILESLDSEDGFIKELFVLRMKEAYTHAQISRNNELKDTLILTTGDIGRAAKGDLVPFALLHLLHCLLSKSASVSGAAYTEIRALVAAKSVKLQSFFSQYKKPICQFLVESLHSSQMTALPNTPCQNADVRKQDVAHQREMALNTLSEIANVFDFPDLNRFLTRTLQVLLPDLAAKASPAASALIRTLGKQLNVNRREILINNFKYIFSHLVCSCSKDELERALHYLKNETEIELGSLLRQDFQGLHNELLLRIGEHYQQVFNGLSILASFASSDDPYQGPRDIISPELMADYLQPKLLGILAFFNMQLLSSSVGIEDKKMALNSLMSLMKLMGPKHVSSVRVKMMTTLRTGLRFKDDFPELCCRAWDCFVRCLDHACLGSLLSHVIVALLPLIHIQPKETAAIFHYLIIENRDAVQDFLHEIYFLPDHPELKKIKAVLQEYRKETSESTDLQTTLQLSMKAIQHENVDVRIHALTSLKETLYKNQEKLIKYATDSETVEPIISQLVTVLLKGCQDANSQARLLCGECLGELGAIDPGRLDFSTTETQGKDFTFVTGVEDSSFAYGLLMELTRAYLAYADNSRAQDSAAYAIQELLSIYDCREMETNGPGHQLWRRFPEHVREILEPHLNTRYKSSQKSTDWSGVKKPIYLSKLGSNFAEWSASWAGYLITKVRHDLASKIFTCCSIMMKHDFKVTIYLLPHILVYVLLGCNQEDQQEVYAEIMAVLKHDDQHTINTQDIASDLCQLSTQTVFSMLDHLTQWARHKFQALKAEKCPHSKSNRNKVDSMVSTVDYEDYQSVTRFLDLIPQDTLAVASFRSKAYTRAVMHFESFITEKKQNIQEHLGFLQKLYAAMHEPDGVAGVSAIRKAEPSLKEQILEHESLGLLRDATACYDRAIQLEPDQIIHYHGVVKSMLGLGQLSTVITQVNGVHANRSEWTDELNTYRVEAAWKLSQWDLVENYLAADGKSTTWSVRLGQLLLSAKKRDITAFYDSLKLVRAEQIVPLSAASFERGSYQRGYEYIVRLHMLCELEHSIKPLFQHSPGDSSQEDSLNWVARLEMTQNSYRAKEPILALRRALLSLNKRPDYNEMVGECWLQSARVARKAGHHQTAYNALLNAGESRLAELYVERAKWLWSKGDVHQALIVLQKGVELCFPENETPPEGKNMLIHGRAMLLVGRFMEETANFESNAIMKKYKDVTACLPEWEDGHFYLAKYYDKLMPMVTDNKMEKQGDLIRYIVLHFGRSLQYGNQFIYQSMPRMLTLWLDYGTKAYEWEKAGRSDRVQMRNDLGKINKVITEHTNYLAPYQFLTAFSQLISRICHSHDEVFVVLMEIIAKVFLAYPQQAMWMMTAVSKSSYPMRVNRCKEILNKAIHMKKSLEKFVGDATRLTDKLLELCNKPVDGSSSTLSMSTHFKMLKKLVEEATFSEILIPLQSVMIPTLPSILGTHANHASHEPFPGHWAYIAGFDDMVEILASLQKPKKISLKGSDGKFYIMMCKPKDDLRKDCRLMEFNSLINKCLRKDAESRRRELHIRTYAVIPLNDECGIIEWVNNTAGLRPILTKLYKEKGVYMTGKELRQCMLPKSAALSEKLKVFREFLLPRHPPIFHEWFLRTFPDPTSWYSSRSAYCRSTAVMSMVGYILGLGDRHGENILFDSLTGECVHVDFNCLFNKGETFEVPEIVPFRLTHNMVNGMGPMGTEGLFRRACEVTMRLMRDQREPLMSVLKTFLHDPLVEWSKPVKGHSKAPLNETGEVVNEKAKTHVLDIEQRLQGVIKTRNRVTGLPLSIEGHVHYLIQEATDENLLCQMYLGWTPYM
Test: Inhibition of 5'-TAMRA-labeled tracer 3',6'-bis(dimethylamino)-N-(4-{[2(1H-indol-4-yl)-6-(morpholin-4-yl)-pyrimidin-4-yl]amino}butyl)-3-oxo-3H-spiro[2-benzofuran-1,9'-xanthene]-5-carboxamide binding to recombinant human full-length N-terminal Flag-tagged ATR expressed in HEK293-6E cells co-expressing human full-length STREP-tagged ATRIP preincubated for 10 mins followed by tracer addition and measured after 30 mins by TR-FRET assay
Assay type: cell-based
measured.quantity: pIC50
Units for pIC50: none; it is -log10 of a concentration expressed in mol/L.

A selection of reference data follows.
| compound | pIC50 |
| --- | --- |
| C[C@@H]1COCCN1c1cc(C#Cc2cccnc2)c2ccnc(-c3ccn[nH]3)c2n1 | 7.66 |
| CC(C)Oc1cc(N2CCOCC2)nc2c(-c3cnc[nH]3)nccc12 | 5.47 |
| CC(C)Oc1cc(N2CCOCC2C(F)(F)F)nc2c(-c3ccn[nH]3)nccc12 (stereo not given) | 5.06 |
| CC(C)Oc1cc(N2C[C@H]3COC[C@H]3C2)nc2c(-c3ccn[nH]3)nccc12 | 5.03 |
| CC(C)Oc1cc(N2CCOCC2)nc2c(-c3ccn[nH]3)cccc12 | 5.30 |
| CCC1COCCN1c1cc(OC(C)C)c2ccnc(-c3ccn[nH]3)c2n1 (stereo not given) | 5.73 |

Tell me its pIC50 on Serine/threonine-protein kinase ATR (Homo sapiens, UniProt Q13535): C[C@@H]1COCCN1c1cc(-c2cccnc2F)c2ccnc(-c3ccn[nH]3)c2n1
8.10

Tell me its pIC50 on Serine/threonine-protein kinase ATR (Homo sapiens, UniProt Q13535): CCS(=O)(CC)=Nc1cc(N2CCOC[C@H]2C)nc2c(-c3ccn[nH]3)nccc12
7.66

Tell me its pIC50 on Serine/threonine-protein kinase ATR (Homo sapiens, UniProt Q13535): CC(C)Oc1cc(N2CCOC3CC32)nc2c(-c3ccn[nH]3)nccc12 (stereo not given)
5.82

Tell me its pIC50 on Serine/threonine-protein kinase ATR (Homo sapiens, UniProt Q13535): Cc1cc(-c2nccc3c(OC(C)C)cc(N4CCOCC4)nc23)n[nH]1
4.90
